biological target: Cysteine protease ATG4B (Homo sapiens); assay: Inhibition of ATG4B (unknown origin) at 100 uM incubated up to 1 hr in presence of fluorescent protein substrate by FRET-based-LC3 cleavage assay relative to control
metric: inhibition (%)

Below: 2 compounds and their reported inhibition.
O=C(O)CCC(NC(=O)Nc1ncc([N+](=O)[O-])s1)C(=O)O (centres undefined)    27
O=C(Nc1ncc([N+](=O)[O-])s1)NC(Cc1ccccc1)C(=O)O (centres undefined)    17

1 = O=C(Nc1ccccc1)Nc1ncc([N+](=O)[O-])s1
2 = O=C(Nc1ccccn1)Nc1ncc([N+](=O)[O-])s1
Input line: Which value of inhibition is numerically greater: that of 1 or that of 2 ? // return label of chosen record
Output line: 1
(1: 21%, 2: 3%)

* * *

Target: Cysteine protease ATG4B (Homo sapiens) (UniProt Q9Y4P1)
Sequence (whole entry): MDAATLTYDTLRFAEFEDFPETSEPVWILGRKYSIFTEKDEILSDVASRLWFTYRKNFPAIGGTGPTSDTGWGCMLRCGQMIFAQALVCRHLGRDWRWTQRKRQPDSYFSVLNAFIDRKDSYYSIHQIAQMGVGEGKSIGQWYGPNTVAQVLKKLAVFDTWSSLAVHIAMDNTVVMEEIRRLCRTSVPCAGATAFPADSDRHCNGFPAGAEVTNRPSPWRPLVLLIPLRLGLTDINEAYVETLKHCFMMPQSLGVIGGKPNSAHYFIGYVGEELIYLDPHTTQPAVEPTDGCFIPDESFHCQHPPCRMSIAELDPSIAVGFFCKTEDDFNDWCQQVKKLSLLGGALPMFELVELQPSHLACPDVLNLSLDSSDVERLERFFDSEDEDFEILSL
Assay: Inhibition of ATG4B (unknown origin) at 1.6 uM incubated up to 1 hr in presence of fluorescent protein substrate by FRET-based-LC3 cleavage assay relative to control
metric: inhibition (%)

Below: 2 compounds and their reported inhibition.
O=C(Nc1ccccc1)Nc1ncc([N+](=O)[O-])s1    17
O=C(Nc1ccccn1)Nc1ncc([N+](=O)[O-])s1    0

a = O=C(Nc1ncc([N+](=O)[O-])s1)NC(Cc1ccccc1)C(=O)O (centres undefined)
b = O=C(O)CCC(NC(=O)Nc1ncc([N+](=O)[O-])s1)C(=O)O (centres undefined)
Input line: Which value of inhibition is numerically greater: that of a or that of b ? // return label of chosen record
Output line: b

* * *

biological target: Cysteine protease ATG4B (Homo sapiens, UniProt Q9Y4P1); test: Inhibition of ATG4B (unknown origin) incubated up to 1 hr in presence of fluorescent protein substrate by FRET-based-LC3 cleavage assay
metric: IC50 (nM)

COc1ccc(CNC(=O)Nc2ncc([N+](=O)[O-])s2)cc1    1600
O=C(NCc1ccccc1)Nc1ncc([N+](=O)[O-])s1    1700

* * *

Catalogue of IC50 values
test: Cytotoxicity against human SUM149PT-R75 cells assessed as induction of cell killing incubated for 72 hrs by crystal violet staining based assay; format: functional

COc1ccc(CNC(=O)Nc2ncc([N+](=O)[O-])s2)cc1    26 to 35.1 µM

Input line: Which IC50 is listed for `O=C(NCc1ccccc1)Nc1ncc([N+](=O)[O-])s1` ?
Output line: 24.5 to 34.1 µM
